# Test system: frog Glucocorticoid Receptor (GR), gene 397897
# Assay comment: ATG_frGR_EcoTox2: Attagene TRANS-FACTORIAL EcoTox-2 HepG2 Assay for frog Glucocorticoid Receptor (GR)
Records with an inconclusive call do not appear. Activity calls are given as the source filed them. Rule for the calls: active = hit-call score of the fitted dose curve at least 0.9, where 1 is the maximum; inconclusive = response in the unintended direction; inactive = score below 0.9.
Select the correct class. Options are YES (active), NO (inactive) and nothing else.

Some entries whose results are on file:
[in] So what was the verdict on `CC(C)(Oc1ccc(CCNC(=O)c2ccc(Cl)cc2)cc1)C(=O)O` in this test?
[out] NO

[in] I'd appreciate the recorded outcome for `CC(C)(Oc1ccc(Cl)cc1)C(=O)O` from this test.
[out] NO

[in] Which outcome did this test record for the molecule `Cc1cccc(Nc2cc(Cl)nc(SCC(=O)O)n2)c1C` ?
[out] NO

[in] Could you check what this test reported for CC(c1cc2ccccc2s1)N(O)C(N)=O (stereo not given) ?
[out] YES

Pending molecule:
[in] # fetch the recorded call for `C=C(c1ccc(C(=O)O)cc1)c1cc2c(cc1C)C(C)(C)CCC2(C)C` here
[out] NO
